assay setup: in acetone, 293.2 K
measured metric: solubility (mole fraction)
Kindly provide the number alone.

Looking up O=c1cc(-c2ccccc2)oc2cc(O)cc(O)c12 , I see its solubility (mole fraction) listed as 0.00128

* * *

assay setup: in n-hexane, 298.2 K
measured metric: solubility (mole fraction)
Kindly provide the number alone.

Looking up O=c1cc(-c2ccccc2)oc2cc(O)cc(O)c12 , I see its solubility (mole fraction) listed as 2.95e-07

* * *

assay setup: in methanol, 333.2 K
measured metric: solubility (mole fraction)
Kindly provide the number alone.

Looking up O=c1cc(-c2ccccc2)oc2cc(O)cc(O)c12 , I see its solubility (mole fraction) listed as 0.000813
